Test: chemical genetic growth profiling, strain panel (AID 1159580);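 also: tested at 20 µM; growth read once vehicle control cultures reached saturation at 30 °C; lower values mean less growth of the strain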
Conditions: S. cerevisiae deletion strains, growth OD, locus YER015W, strain faa2
In all, about 5,500 compounds went through this assay and about 2,000 (36%) were called active. Not shown: some 18% with an inconclusive outcome. Rule as the data show it: active = normalized growth mostly below about 0.91 (no sharp cut-off); inconclusive = no clear call, values can overlap the other calls; inactive = mostly above about 0.92. The list shows a part of the results.
# valid calls are active, inactive; nothing else

Check out these entries, answers already filled in.
OC(CCN1CCCCC1)(c1ccccc1)c1ccccc1; inactive
CCCCOc1ccc(C(=O)CCN2CCCCC2)cc1; inactive

I would be grateful if you could indicate the recorded call for CN1C2CC3C[C@H]1C(O3)C2O (stereo partly specified) . inactive

Each compound tested received a call. Report the one for COc1ccc2cc1Oc1ccc(cc1)C[C@H]1c3cc(c(OC)cc3CCN1C)Oc1c(OC)c(OC)cc3c1[C@H](C2)N(C)CC3 . inactive

Given O=C(/C=C/c1ccccc1)O[C@H]1C[C@@H](O)[C@]2(O)C=CO[C@@H](O[C@@H]3O[C@H](CO)[C@@H](O)[C@H](O)[C@H]3O)[C@H]12 , state the outcome it received in this test. inactive

I'd appreciate the recorded outcome for COC(=O)COc1cc(Cl)c(Cl)cc1Cl from this test. inactive

Assay result, entry CO[C@H]1C[C@H](O[C@H]2[C@H](C)[C@@H](OC3O[C@H](C)C[C@H](N(C)C)[C@H]3O)[C@@H](C)C[C@]3(CO3)C(=O)[C@H](C)[C@@H](O)[C@@H](C)[C@@H](C)OC(=O)[C@@H]2C)O[C@@H](C)[C@@H]1O (stereo partly specified) — outcome? inactive

Can you look up the reported call for Cc1cc(OC(=O)N2CCCCC2)c(C(C)C)cc1[N+](C)(C)C for me? inactive

I would be grateful if you could indicate the recorded call for CCCCOc1ccc(OCCCN2CCOCC2)cc1 . active

Write down the call the test reported for this compound. Item: NC[C@@H]1O[C@H](O[C@@H]2[C@@H](CO)OC(O[C@@H]3[C@@H](O)[C@H](N)C[C@H](N)[C@H]3OC3O[C@H](CN)[C@@H](O)[C@H](O)[C@H]3N)[C@@H]2O)[C@H](N)[C@@H](O)[C@@H]1O (stereo partly specified) inactive

# outcome recorded in this test, key = N#Cc1c(Cl)c(Cl)c(Cl)c(C#N)c1Cl active
